Test system: UACC-257
Assay: NCI tumour cell line growth inhibition, 48 h
Calls of active or inactive are those of the source. Rule as the data show it: active = GI50 up to about 1.1 µM and inactive = higher.
Kindly state GI50 for each of the entries shown.

Before answering, review these 5 worked examples.
COMPOUND	GI50
C=CCCON(C(=O)OC(C)(C)C)C(C)(C)C	> 100 µM (inactive)
COC(C)(C)C1=CCC(C)CC1 (stereo unspecified)	> 100 µM (inactive)
Clc1ccc(OCc2nnc3n2N=C(c2ccccc2)CS3)c(Cl)c1	56.2 µM (inactive)
CON(C)C(=O)C(C)NC(=O)OCc1ccccc1 (stereo unspecified)	> 100 µM (inactive)
C#C[C@@H](CCCC)OC(=O)N[C@H](C)c1ccccc1	44.8 µM (inactive)

Continue with the compound presented below.
[ask] # get_value(readout='GI50', item= Cc1ccc(/C(=C/C=C(C#N)C#N)Sc2cc(Cl)ccc2Cl)cc1 )
[reply] 2.78 µM (inactive)

----------
Test system: EKVX
Test: NCI tumour cell line growth inhibition, 48 h
The source made the active and inactive calls. Rule as the data show it: active = GI50 up to about 1.1 µM and inactive = higher.
Kindly state GI50 for each of the entries shown.

COMPOUND	MEASUREMENT_TARGET	ASSAY_READOUT	ENDPOINT_VALUE
O=C1CCC2(c3ccccc3)OCC([C@@H](O)c3ccccc3)N12 (some centres not stated)	EKVX	GI50	> 100 µM (inactive)
CCOC(=O)C(Cc1ccc(O)cc1)Nc1nc(=O)c2c(=O)oc(Cl)cc2o1 (configuration not stated)	EKVX	GI50	12.4 µM (inactive)
COc1ccc(N2C(=O)C3c4[nH]c5ccccc5c4C4CC(C)(C)CC(C)(C)C4C3C2=O)cc1 (configuration not stated)	EKVX	GI50	15.9 µM (inactive)
CC(=O)Nc1ccc(S(=O)(=O)N/N=C(\C)CN2C(=O)c3ccccc3C2=O)cc1	EKVX	GI50	> 100 µM (inactive)
Cc1ccc(CC(C)N)cc1 (configuration not stated)	EKVX	GI50	> 100 µM (inactive)
Cn1c2cc(Cl)ccc2c2ccc3c(c21)C(=O)C=CC3=O	EKVX	GI50	> 71.4 µM (inactive)

Continue with the compound presented below.
[ask] Write down the reported GI50 of CCOC1c2cc(C(C)C)c(O)c(O)c2[C@@]23CCCC(C)(C)C2C1OC3=O (some centres not stated) , test system: EKVX.
[reply] > 100 µM (inactive)

----------
Test system: Hs-578T
Assay: NCI tumour cell line growth inhibition, 48 h
Calls of active or inactive are those of the source. Cut-off read from the data, not from the text of the source: active = GI50 up to about 1.1 µM and inactive = higher.
ASSAY_READOUT: GI50

Before answering, review these 4 worked examples.
COMPOUND	ASSAY_READOUT	ENDPOINT_VALUE
CC1CC(C#N)=C2NCCN2C1=O (stereo unspecified)	GI50	> 100 µM (inactive)
CCNC1=C(NC(=O)c2ccccc2)C(=O)c2ccccc2C1=O	GI50	38.7 µM (inactive)
COc1cc2c3c(n(C)c(=O)c2cc1OC)-c1cc2c(cc1/C3=C/CCCCBr)OCO2	GI50	> 100 µM (inactive)
COc1ccc(OC)c(CNc2ccc(C(=O)O)cc2)c1	GI50	> 100 µM (inactive)

Please look at the items below and tell me GI50 for each one, in order.
1. CNC1Cc2c[nH]c3cccc(c23)C12C=C(C)C(=O)O2 (stereo unspecified)
2. COc1cc(C2S/C(=C/c3ccccc3)C(=O)N2Cc2ccccc2)cc(OC)c1OC (stereo unspecified)
3. Cc1cc(N2CCN(C)CC2)n2nc(-c3ccc(Cl)cc3)nc2n1

[reply]
1. > 100 µM (inactive)
2. 30.2 µM (inactive)
3. > 100 µM (inactive)

----------
Tested on: SK-MEL-5
Assay: NCI tumour cell line growth inhibition, 48 h
The source made the active and inactive calls. No stated cut-off is given here; in the data, active = GI50 up to about 1.1 µM and inactive = higher.
Return exactly one item of t (active), f (inactive)

Field: example entries. Status: answers known.
COMPOUND	MEASUREMENT_TARGET	CATEGORY_LABEL
O=C(NCCCCNCCCNC(=O)c1cc(-c2ccccc2)nc2ccccc12)c1cc(-c2ccccc2)nc2ccccc12	SK-MEL-5	f
CC1CC(=O)NC2CC1C2(C)C (configuration not stated)	SK-MEL-5	f
CC(=O)OCC12CN(C#N)C3C4COC(CC41)C1(C(=O)N(C)c4ccccc41)C32 (configuration not stated)	SK-MEL-5	f
c1cnc2c(c1)-n1cccc1C1(CCSCC1)NN2	SK-MEL-5	f

[ask] I would be grateful if you could indicate the recorded call for O=[N+]([O-])c1ccc(C2=Nn3c(nnc3-c3ccc(Cl)cc3)SC2)o1 .
[reply] f

[ask] I would be grateful if you could indicate the recorded call for Cc1ccc(NC(=O)C(=O)Cc2cccc[n+]2[O-])cc1C .
[reply] f

----------
System: HOP-18
Assay: NCI tumour cell line growth inhibition, 48 h
Calls of active or inactive are those of the source. No stated cut-off is given here; in the data, active = GI50 up to about 1.1 µM and inactive = higher.
Return exactly one item of 1 (yes) (active), 0 (no) (inactive)

Field: example entries. Status: answers known.
MOLECULE	CATEGORY_LABEL
C/C(=C(/C)c1cc[n+](C)cc1)c1cc[n+](C)cc1	0 (no)
O=C1C(C2=[N+]([O-])c3ccccc3C2=O)=[N+]([O-])c2ccccc21	0 (no)

Consider now this further molecule.
[ask] I would be grateful if you could indicate the recorded call for C/C(=N\NC(N)=S)c1ccc(C)c(C)c1 .
[reply] 0 (no)

----------
Test system: 786-0
Assay: NCI tumour cell line growth inhibition, 48 h
Activity calls are given as the source filed them. No stated cut-off is given here; in the data, active = GI50 up to about 1.1 µM and inactive = higher.
ASSAY_READOUT: GI50

Before answering, review these 2 worked examples.
COMPOUND	GI50
COc1cc2c(c(O)c1C)C(=O)CC(c1ccccc1)O2 (stereo not given)	59.7 µM (inactive)
O=C1/C(=C/c2cccc(O)c2)COc2ccccc21	4.69 µM (inactive)

Please look at the items below and tell me GI50 for each one, in order.
1. COc1cc(C2=C(c3cc(OC)c4ccccc4c3OC)C(=O)c3ccccc3C2=O)c(OC)c2ccccc12
2. C=C(C(=O)OC)[C@H]1CC/C(C)=C/CC[C@@](C)(O)C=CC[C@@]2(C)O[C@@H]2C1
3. CC(CO)(Nc1ccc([N+](=O)[O-])cc1[N+](=O)[O-])C(=O)O (stereo not given)
4. COc1c(O)ccc2c1CN1CCc3cc4c(cc3C1C2)OCO4 (stereo not given)
5. CC(=O)c1nc2ccccc2n1CC(=O)c1ccc([N+](=O)[O-])cc1
6. CC(C)C1CNC2N1C(=O)C2(C)OCc1ccccc1 (stereo not given)

[reply]
["> 100 µM (inactive)", "17.6 µM (inactive)", "71 µM (inactive)", "23.9 µM (inactive)", "3.47 µM (inactive)", "> 100 µM (inactive)"]

Please look at the items below and tell me GI50 for each one, in order.
1. COc1ccc2nc(-c3cccs3)cc(C(O)CN3CCSCC3)c2c1 (stereo not given)
2. NC(=O)NCCCC(NC(=O)OCCCCCn1ccc(=O)[nH]c1=O)C(=O)O (stereo not given)

[reply]
16.8 µM (inactive)
> 100 µM (inactive)

----------
Test system: NCI-H23
Test: NCI tumour cell line growth inhibition, 48 h
Calls of active or inactive are those of the source. Rule as the data show it: active = GI50 up to about 1.1 µM and inactive = higher.
Kindly state GI50 for each of the entries shown.

MOLECULE	GI50
Cc1ccc(Cn2c(C)nc3c2C(=O)c2ccccc2C3=O)cc1	5.21 µM (inactive)
Cc1cc(-c2ccc(C(=O)C(c3ccccc3)(c3ccccc3)c3ccccc3)[nH]2)on1	15 µM (inactive)
COc1ccc(C2c3cc4c(cc3OC(N3CCCCC3)C2C)OCO4)cc1 (stereo not given)	58.5 µM (inactive)
CC(=O)NC1C(OCc2ccccc2)OC(CO)C(O)C1OCC(=O)NC(C)C(=O)NC(CCC(=O)OCCNC(=O)c1cccc2cc3ccccc3nc12)C(N)=O (stereo not given)	20.7 µM (inactive)
O=C1C=C(Nc2cc(Cl)ccc2Cl)c2ccccc2C1=O	20.7 µM (inactive)
CC(=O)Nc1ccc(S(=O)(=O)N/N=C(\C)CN2C(=O)c3ccccc3C2=O)cc1	> 100 µM (inactive)

Please look at the items below and tell me GI50 for each one, in order.
1. Cc1ccccc1C1CC(=O)CC(c2ccccc2C)C12C(=O)NC(=S)NC2=O (stereo not given)
2. CC(C)C1CNC2N1C(=O)C2(C)OCc1ccccc1 (stereo not given)
3. CC1(C)OCC(COC(=O)C=[N+]=[N-])O1 (stereo not given)
4. CCNC1=C(NC(=O)c2ccccc2)C(=O)c2ccccc2C1=O

[reply]
1. 35.2 µM (inactive)
2. > 100 µM (inactive)
3. > 100 µM (inactive)
4. 36.7 µM (inactive)

----------
System: UACC-62
Test: NCI tumour cell line growth inhibition, 48 h
Activity calls are given as the source filed them. Cut-off read from the data, not from the text of the source: active = GI50 up to about 1.1 µM and inactive = higher.
Kindly state GI50 for each of the entries shown.

Before answering, review these 5 worked examples.
COMPOUND	MEASUREMENT_TARGET	GI50
CN/C(=N\N=C1/C(=O)Nc2ccccc21)SCC(=O)c1ccc(Br)cc1	UACC-62	50.1 µM (inactive)
CC1=Nc2ccccc2SC(c2c(Cl)cccc2Cl)C1 (stereo unspecified)	UACC-62	1.25 µM (inactive)
CC(=O)c1nc2ccccc2n1CC(=O)c1ccc([N+](=O)[O-])cc1	UACC-62	10 µM (inactive)
O=C1c2cccnc2S(=O)(=O)N1c1ccc(Oc2ccccc2)cc1	UACC-62	> 100 µM (inactive)
CN(C)CCCCN1c2ccccc2Sc2cc(N=[N+]=[N-])ccc21	UACC-62	1.85 µM (inactive)

Please look at the items below and tell me GI50 for each one, in order.
1. O=C(CCn1ccnc1[N+](=O)[O-])NCCCn1ccnc1[N+](=O)[O-]
2. CCNC1=C(NC(=O)c2ccccc2)C(=O)c2ccccc2C1=O
3. CC(=O)NC1C(OCc2ccccc2)OC(CO)C(O)C1OCC(=O)NC(C)C(=O)NC(CCC(=O)OCCNC(=O)c1cccc2cc3ccccc3nc12)C(N)=O (stereo unspecified)
4. Nc1ccc(Oc2ccc(C34CC5C6CC7(c8ccc(Oc9ccc(N)cc9)cc8)CC5C(C3)C(C7)C6C4)cc2)cc1
5. N#CCCN(c1ccc(/C=N/c2ccc(C(=O)O)cc2)cc1)S(=O)(=O)c1ccccc1

[reply]
> 100 µM (inactive)
20 µM (inactive)
15.7 µM (inactive)
> 100 µM (inactive)
> 100 µM (inactive)

Please look at the items below and tell me GI50 for each one, in order.
1. CCOC(=O)C(Cc1ccc(O)cc1)Nc1nc(=O)c2c(=O)oc(Cl)cc2o1 (stereo unspecified)
2. CC1=CC(=O)/C(=C/NC(=S)Nc2ccccc2)C(=O)O1
3. COc1c(C)c(C/C=C(\C)CCCCO)c(OC)c(OC)c1OC
4. N=C(N)N/N=C/c1c(-c2ccccc2)nc2ccn3c(/C=N/N=C(N)N)c(-c4ccccc4)nc3n12
5. CNC1Cc2c[nH]c3cccc(c23)C12C=C(C)C(=O)O2 (stereo unspecified)
6. N#CCCN(CCC#N)c1ccc(/C=C2\N=C(c3cc([N+](=O)[O-])ccc3Cl)OC2=O)cc1

[reply]
11.4 µM (inactive)
> 100 µM (inactive)
> 100 µM (inactive)
38.9 µM (inactive)
> 100 µM (inactive)
62.4 µM (inactive)

Please look at the items below and tell me GI50 for each one, in order.
1. O=C1OC(CS(=O)(=O)c2ccccc2)CC1O (stereo unspecified)
2. O=C1c2ccccc2C(=O)N1[C@@H](Cc1ccccc1)C(=O)n1cccc1CO
3. Cc1ccc(N)c(S)c1
4. O=C1C[C@H](Sc2ccccc2)C2(OCCO2)[C@H]2ON3CCC[C@@H]3[C@@H]12

[reply]
1. 41 µM (inactive)
2. > 100 µM (inactive)
3. 17.6 µM (inactive)
4. 1.73 µM (inactive)

[ask] # get_value(readout='GI50', item= O=C1CCC2(c3ccccc3)OCC([C@@H](O)c3ccccc3)N12 (stereo partly specified) )
[reply] > 100 µM (inactive)
